tested on: Angiotensin II receptor (Oryctolagus cuniculus); experiment: Angiotensin II-like agonist activity, measured in the in vitro rabbit aorta strip assay
Where a SMILES comes first, the peptide text is derived from it. [ ]: non-standard residue; d: D form. Phe(4-SO2NH2) = N[C@@H](Cc1ccc(S(N)(=O)=O)cc1)C(=O)O; Phe(4-F) = N[C@@H](Cc1ccc(F)cc1)C(=O)O; Sar = CNCC(=O)O
OBSERVATION_TYPE: Activity (%)

These solved cases illustrate the format of a correct answer.
Challenge: // lookup Activity | system=Angiotensin II receptor (Oryctolagus cuniculus) | key= CC[C@H](C)[C@H](NC(=O)[C@@H]1CCCN1C(=O)[C@H](Cc1c[nH]cn1)NC(=O)[C@@H](NC(=O)[C@H](Cc1ccc(F)cc1)NC(=O)[C@@H](NC(=O)[C@H](CCCN=C(N)N)NC(=O)CNC)C(C)C)[C@@H](C)CC)C(=O)O (H-[Sar]RV[Phe(4-F)]IHPI-OH)
Response given: 0

Challenge: Record lookup: for Angiotensin II receptor (Oryctolagus cuniculus), what Activity belongs to CC[C@H](C)[C@H](NC(=O)[C@H](Cc1ccc(S(N)(=O)=O)cc1)NC(=O)[C@@H](NC(=O)[C@H](CCCN=C(N)N)NC(=O)CNC)C(C)C)C(=O)N[C@@H](Cc1c[nH]cn1)C(=O)N1CCC[C@H]1C(=O)N[C@@H](Cc1ccccc1)C(=O)O (H-[Sar]RV[Phe(4-SO2NH2)]IHPF-OH) ?
Response given: 0.9

[a] CC[C@H](C)[C@H](NC(=O)[C@@H]1CCCN1C(=O)[C@H](Cc1c[nH]cn1)NC(=O)[C@@H](NC(=O)[C@H](Cc1ccccc1)NC(=O)[C@@H](NC(=O)[C@H](CCCN=C(N)N)NC(=O)CNC)C(C)C)[C@@H](C)CC)C(=O)O (H-[Sar]RVFIHPI-OH)
[b] CC[C@H](C)[C@H](NC(=O)[C@H](Cc1ccccc1)NC(=O)[C@@H](NC(=O)[C@H](CCCN=C(N)N)NC(=O)CNC)C(C)C)C(=O)N[C@@H](Cc1c[nH]cn1)C(=O)N1CCC[C@H]1C(=O)N[C@@H](Cc1ccccc1)C(=O)O (H-[Sar]RVFIHPF-OH)
Challenge: Dear colleague, could you let me know whether a or b has the lower recorded Activity? Thanks. Field: selected label. Fill in the label of the entry you choose.
Response given: a
(a: 0%, b: 22%)

====

Listed here are compounds together with their documented Kb.
species on record: Oryctolagus cuniculus; assay: Antagonist activity pA2, was measured in the in vitro rabbit aorta strip assay; format: functional; settings: read-out: pA2 (converted)
Where a SMILES comes first, the peptide text is derived from it. [ ]: non-standard residue; d: D form. Sar = CNCC(=O)O
Quick reminder: number only, in nM, skip the unit.

Use the examples below as a reference point.
Challenge: For the compound shown here, CC[C@H](C)[C@H](NC(=O)[C@H](Cc1ccccc1)NC(=O)[C@@H](NC(=O)[C@H](CCCN=C(N)N)NC(=O)CNC)C(C)C)C(=O)N[C@@H](Cc1c[nH]cn1)C(=O)N1CCC[C@H]1C(=O)N[C@H](Cc1ccc(O)cc1)C(=O)O , give the reported Kb.
Response given: 100

Challenge: Tell me the measured Kb of CC[C@H](C)[C@H](NC(=O)[C@H](Cc1ccccc1)NC(=O)[C@@H](NC(=O)[C@H](CCCN=C(N)N)NC(=O)CNC)C(C)C)C(=O)N[C@@H](Cc1c[nH]cn1)C(=O)N1CCC[C@H]1C(=O)N[C@@H](Cc1ccccc1)C(=O)O (H-[Sar]RVFIHPF-OH) , please.
Response given: 12.6

Next:
Challenge: Bench note: what Kb did CC[C@H](C)[C@H](NC(=O)[C@H](Cc1ccccc1)NC(=O)[C@@H](NC(=O)[C@H](CCCN=C(N)N)NC(=O)CNC)C(C)C)C(=O)N[C@@H](Cc1c[nH]cn1)C(=O)N1CCC[C@H]1C(=O)N[C@@H](Cc1ccc(O)cc1)C(=O)O show?
Response given: 31.6

====

tested on: Angiotensin II receptor (Oryctolagus cuniculus); assay: Angiotensin II-like agonist activity, measured in the in vitro rabbit aorta strip assay
*1 amine or outer side, *2 acyl side, *3 side chain or, on linkers, in order; H or OH if unused. Where a SMILES comes first, the peptide text is derived from it. [ ]: non-standard residue; d: D form. X2 = CC(=O)NCSc1ccc(C[C@H](N[*:1])C(=O)[*:2])cc1; Phe(4-B(OH)2) = N[C@@H](Cc1ccc(B(O)O)cc1)C(=O)O; X1 = O=C([C@H](Cc1ccc(S)cc1)N[*:1])[*:2]; Phe(4-NH2) = Nc1ccc(C[C@H](N)C(=O)O)cc1; Phe(4-I) = N[C@@H](Cc1ccc(I)cc1)C(=O)O; Sar = CNCC(=O)O
OBSERVATION_TYPE: Activity (%)

Recorded Activity, per entry:
Challenge: Notebook: pull reported Activity for Angiotensin II receptor (Oryctolagus cuniculus), entry CC[C@H](C)[C@H](NC(=O)[C@H](Cc1ccc(SCNC(C)=O)cc1)NC(=O)[C@@H](NC(=O)[C@H](CCCN=C(N)N)NC(=O)CNC)C(C)C)C(=O)N[C@@H](Cc1c[nH]cn1)C(=O)N1CCC[C@H]1C(=O)N[C@@H](Cc1ccccc1)C(=O)O (H-[Sar]RV[X2]IHPF-OH)
Response given: 9

Challenge: Value wanted: Activity (Angiotensin II receptor (Oryctolagus cuniculus)) of entry CC[C@H](C)[C@H](NC(=O)[C@H](Cc1ccc(B(O)O)cc1)NC(=O)[C@@H](NC(=O)[C@H](CCCN=C(N)N)NC(=O)CNC)C(C)C)C(=O)N[C@@H](Cc1c[nH]cn1)C(=O)N1CCC[C@H]1C(=O)N[C@@H](Cc1ccccc1)C(=O)O (H-[Sar]RV[Phe(4-B(OH)2)]IHPF-OH)
Response given: 10

Challenge: Form: Entry = CC[C@H](C)[C@H](NC(=O)[C@H](Cc1ccccc1)NC(=O)[C@@H](NC(=O)[C@H](CCCN=C(N)N)NC(=O)CNC)C(C)C)C(=O)N[C@@H](Cc1c[nH]cn1)C(=O)N1CCC[C@H]1C(=O)N[C@@H](Cc1ccc(O)cc1)C(=O)O | System = Angiotensin II receptor (Oryctolagus cuniculus) | Activity = ____
Response given: 0

Challenge: Write down the reported Activity of CCOc1ccc(C[C@H](NC(=O)[C@@H](NC(=O)[C@H](CCCN=C(N)N)NC(=O)CNC)C(C)C)C(=O)N[C@H](C(=O)N[C@@H](Cc2c[nH]cn2)C(=O)N2CCC[C@H]2C(=O)N[C@H](C(=O)O)[C@@H](C)CC)[C@@H](C)CC)cc1 , test system: Angiotensin II receptor (Oryctolagus cuniculus).
Response given: 0

[P] CC[C@H](C)[C@H](NC(=O)[C@H](Cc1ccc(S)cc1)NC(=O)[C@@H](NC(=O)[C@H](CCCN=C(N)N)NC(=O)CNC)C(C)C)C(=O)N[C@@H](Cc1c[nH]cn1)C(=O)N1CCC[C@H]1C(=O)N[C@@H](Cc1ccccc1)C(=O)O (H-[Sar]RV[X1]IHPF-OH)
[Q] CC[C@H](C)[C@H](NC(=O)[C@H](Cc1ccc(I)cc1)NC(=O)[C@@H](NC(=O)[C@H](CCCN=C(N)N)NC(=O)CNC)C(C)C)C(=O)N[C@@H](Cc1c[nH]cn1)C(=O)N1CCC[C@H]1C(=O)N[C@@H](Cc1ccccc1)C(=O)O (H-[Sar]RV[Phe(4-I)]IHPF-OH)
[R] CC[C@H](C)[C@H](NC(=O)[C@H](Cc1ccc(N)cc1)NC(=O)[C@@H](NC(=O)[C@H](CCCN=C(N)N)NC(=O)CNC)C(C)C)C(=O)N[C@@H](Cc1c[nH]cn1)C(=O)N1CCC[C@H]1C(=O)N[C@@H](Cc1ccccc1)C(=O)O (H-[Sar]RV[Phe(4-NH2)]IHPF-OH)
[S] CCOc1ccc(C[C@H](NC(=O)[C@@H](NC(=O)[C@H](CCCN=C(N)N)NC(=O)CNC)C(C)C)C(=O)N[C@H](C(=O)N[C@@H](Cc2c[nH]cn2)C(=O)N2CCC[C@H]2C(=O)N[C@@H](Cc2ccccc2)C(=O)O)[C@@H](C)CC)cc1
Challenge: Sort the compounds on Activity; start with the lowest figure. State the ranking by listing the labels in the requested order.
Response given: Q, S, P, R

====

test system: Angiotensin II receptor (Oryctolagus cuniculus); experiment: Angiotensin II-like agonist activity, measured in the in vitro rabbit aorta strip assay
Where a SMILES comes first, the peptide text is derived from it. [ ]: non-standard residue; d: D form. Phe(4-NO2) = N[C@@H](Cc1ccc([N+](=O)[O-])cc1)C(=O)O; Phe(4-B(OH)2) = N[C@@H](Cc1ccc(B(O)O)cc1)C(=O)O; Sar = CNCC(=O)O
OBSERVATION_TYPE: Activity (%)

Challenge: Lab request: please report Activity under test system Angiotensin II receptor (Oryctolagus cuniculus) for CC[C@H](C)[C@H](NC(=O)[C@H](Cc1ccc(OC)cc1)NC(=O)[C@@H](NC(=O)[C@H](CCCN=C(N)N)NC(=O)CNC)C(C)C)C(=O)N[C@@H](Cc1c[nH]cn1)C(=O)N1CCC[C@H]1C(=O)N[C@@H](Cc1ccccc1)C(=O)O
Response given: 0

Challenge: Under Angiotensin II receptor (Oryctolagus cuniculus): Activity value of CC[C@H](C)[C@H](NC(=O)[C@@H]1CCCN1C(=O)[C@H](Cc1c[nH]cn1)NC(=O)[C@@H](NC(=O)[C@H](Cc1ccc(B(O)O)cc1)NC(=O)[C@@H](NC(=O)[C@H](CCCN=C(N)N)NC(=O)CNC)C(C)C)[C@@H](C)CC)C(=O)O (H-[Sar]RV[Phe(4-B(OH)2)]IHPI-OH) ?
Response given: 0

Challenge: Reported Activity for Angiotensin II receptor (Oryctolagus cuniculus), given CC[C@H](C)[C@H](NC(=O)[C@H](Cc1ccccc1)NC(=O)[C@@H](NC(=O)[C@H](CCCN=C(N)N)NC(=O)CNC)C(C)C)C(=O)N[C@@H](Cc1c[nH]cn1)C(=O)N1CCC[C@H]1C(=O)N[C@H](Cc1ccc(O)cc1)C(=O)O ?
Response given: 0

Challenge: Short answer please: Activity, Angiotensin II receptor (Oryctolagus cuniculus), entry CC[C@H](C)[C@H](NC(=O)[C@@H]1CCCN1C(=O)[C@H](Cc1c[nH]cn1)NC(=O)[C@@H](NC(=O)[C@H](Cc1ccc([N+](=O)[O-])cc1)NC(=O)[C@@H](NC(=O)[C@H](CCCN=C(N)N)NC(=O)CNC)C(C)C)[C@@H](C)CC)C(=O)O (H-[Sar]RV[Phe(4-NO2)]IHPI-OH)
Response given: 0
